Hello, the source for this data is PubChem BioAssay, in case you need it.

Reported values of luciferase signal for individual entries
tested_system: Mitogen-activated protein kinase 7 (Homo sapiens) (UniProt Q13164)
Sequence (Q13164 whole entry, looked up, the tested form may be a part): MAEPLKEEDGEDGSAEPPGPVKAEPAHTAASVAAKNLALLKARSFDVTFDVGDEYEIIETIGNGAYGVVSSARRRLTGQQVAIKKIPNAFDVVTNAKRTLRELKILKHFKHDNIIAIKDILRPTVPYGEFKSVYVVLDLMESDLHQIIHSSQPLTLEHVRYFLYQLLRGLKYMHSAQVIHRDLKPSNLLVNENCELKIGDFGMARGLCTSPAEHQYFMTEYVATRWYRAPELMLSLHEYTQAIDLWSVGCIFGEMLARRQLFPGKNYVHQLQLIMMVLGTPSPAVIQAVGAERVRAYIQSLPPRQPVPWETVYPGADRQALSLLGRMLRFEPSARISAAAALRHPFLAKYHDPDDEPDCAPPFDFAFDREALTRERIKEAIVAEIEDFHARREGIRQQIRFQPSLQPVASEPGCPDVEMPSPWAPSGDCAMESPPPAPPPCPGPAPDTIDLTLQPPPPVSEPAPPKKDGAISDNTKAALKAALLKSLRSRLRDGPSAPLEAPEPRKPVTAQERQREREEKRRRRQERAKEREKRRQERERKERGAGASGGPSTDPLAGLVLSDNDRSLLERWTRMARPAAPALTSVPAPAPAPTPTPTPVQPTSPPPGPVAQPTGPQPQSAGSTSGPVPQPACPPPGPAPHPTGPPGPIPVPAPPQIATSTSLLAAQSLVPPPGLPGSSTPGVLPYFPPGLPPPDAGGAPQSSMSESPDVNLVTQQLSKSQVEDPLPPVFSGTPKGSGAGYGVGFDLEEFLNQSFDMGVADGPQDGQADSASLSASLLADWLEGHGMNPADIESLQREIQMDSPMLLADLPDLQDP
method: ERK5 transactivation activators in reporter cells, primary screen, cell-based, HTS (AID 1508626);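 also: luciferase driven by Gal4-ERK5 fusion binding five Gal4 sites before minimal TATA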
experimental_conditions: HeLa Gal4-ERK5 transactivation, 18 h, at 5 µM, hits give high values
The source made the active and inactive calls.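 The calls were made as follows: active = luciferase signal above three times the same-plate solvent-only control wells; inactive = the rest.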

# count of solved cases: 9
COCC1=C(C(=O)OC(C)OC(=O)OC(C)C)N2C(=O)[C@@H](NC(=O)/C(=N\OC)c3csc(N)n3)[C@H]2SC1 (stereo not given in full)	40 AU (inactive)
COc1ccc(-c2coc3cc(O)ccc3c2=O)c(OC)c1	60 AU (inactive)
O=c1cccc2ccc(O)c(O)c2c1O	44 AU (inactive)
CCCCC[C@H](CC(=O)NO)C(=O)N[C@H](C(=O)N1CCC[C@H]1CO)C(C)C	192 AU (inactive)
CN(C)CCCC1(c2ccc(F)cc2)OCc2cc(C#N)ccc21 (stereo not given)	68 AU (inactive)
CCSC(=N)N	16 AU (inactive)
C#CCCCCCCCCCCCc1ccco1	148 AU (inactive)
CC[C@H]1OC(=O)[C@H](C)[C@@H](O[C@H]2C[C@@](C)(OC)[C@@H](O)[C@H](C)O2)[C@H](C)[C@@H](O[C@@H]2O[C@H](C)C[C@H](N(C)C)[C@H]2O)[C@](C)(O)C[C@@H](C)CN(C)[C@H](C)[C@@H](O)[C@]1(C)O	20 AU (inactive)
CCC(NC(C)C)C(O)c1ccc(O)c(O)c1 (stereo not given)	212 AU (inactive)

Next compound, please.
IN: # luciferase signal lookup, item Oc1cc2c(cc1O)C(c1ccccc1)CNCC2 (stereo not given)
OUT: 44 AU (inactive)
